Would you mind telling me the reported Counts/minute bound of each entry?
test_system: T1, recombinant human IL-6 (human, UniProt P05231 30-212, labeled with radioactive iodine)
T1 construct: Labeled probe in solution, added to wells that carry the synthetic peptides; also called IL-6 ligand; Interleukin-6
method_notes: radioiodinated IL-6 on peptide array
Answers are plain numbers, in counts/minute.

Would you please look over these solved cases?
- binder: "NANYIVWKTNHFTIPKEQYTIINR [Peptide E7]"
  Counts/minute bound [counts/minute]: 1330
- binder: "LTTLLGVLFCFNKRDLIKKHIWPN [Peptide E64]"
  Counts/minute bound [counts/minute]: 4500
- binder: "LDLFKKEKINTEGHSSGIGGSSCM [Peptide E72]"
  Counts/minute bound [counts/minute]: 1440
- binder: "QIPPEDTASTRSSFTVQDLKPFTE [Peptide E28]"
  Counts/minute bound [counts/minute]: 1200
- binder: "QHESSPDISHFERSKQVSSVNEED [Peptide E83]"
  Counts/minute bound [counts/minute]: 1250

Batch of 6 binders: report Counts/minute bound for each.
1. ADGPGSPESIKAYLKQAPPSKGPT [Peptide E51]
2. NEEDFVRLKQQISDHISQSCGSGQ [Peptide E85]
3. IVVPVCLAFLLTTLLGVLFCFNKR [Peptide E63]
4. CYLITVTPVYADGPGSPESIKAYL [Peptide E50]
5. TVNATKLTVNLTNDRYLATLTVRN [Peptide E39]
6. RMAAYTDEGGKDGPEFTFTTPKFA [Peptide E60]

[1190, 1110, 4520, 1260, 4360, 1450]
